- Tested on: MCF-7 (human breast cancer cell line)
- Test Summary: MTT cytotoxicity assay, MCF-7
- Format: cell-based
- Run Conditions: MCF7, read-out: IC50 MCF-7
- Excerpt: MTT assay was used to assess the cytotoxic activities of the synthesised compounds against MCF-7 (human breast cancer cell line) and HepG2 (human hepatocellular carcinoma cell line). The MCF-7, HepG2, and THLE-2 cell lines were purchased from the American Type Culture Collection (ATCC, Rockville, MD, USA). […]
# IC50 listing for each entry below

- COc1ccc2cc(C(C)c3nnc(SCC(=O)Nc4ccc(Cl)cc4)o3)ccc2c1 (stereo not drawn): 11.4 µM
- COc1ccc2cc(C(C)c3nnc(SCC(=O)Nc4ccc(Cl)cc4Cl)o3)ccc2c1 (stereo not drawn): 11.2 µM
- COc1ccc2cc([C@H](C)c3nnc(SCC(=O)Nc4ccc([N+](=O)[O-])cc4)o3)ccc2c1: 10.4 µM
- COc1ccc2cc([C@H](C)c3nnc(SCC(=O)Nc4ccccc4[N+](=O)[O-])o3)ccc2c1: 9.8 µM
- COc1ccc2cc(C(C)c3nnc(SCC(=O)Nc4ccc(C)cc4)o3)ccc2c1 (stereo not drawn): 83.5 µM

// switching to the query molecule
QUERY: Report measured IC50; entry is COc1ccc2cc(C(C)c3nnc(SCC(=O)NC4CCCCC4)o3)ccc2c1 (stereo not drawn)
RESULT: 25.5 µM

* * *

# IC50 listing for each entry below
- System: MCF-7 (human breast cancer cell line)
- Test Summary: MTT cytotoxicity assay, MCF-7
- Format: cell-based
- Run Conditions: MCF7, MTT assay, mean ± SEM of at least three experiments, read-out: IC50 MCF-7
All answers are understood in µM, so give the number only.

• COc1ccc2cc(C(C)c3nnc(SCC(=O)Nc4c(Cl)cccc4Cl)o3)ccc2c1 (stereo not drawn) = 9.8
• COc1ccc2cc(C(C)c3nnc(SCC(=O)Nc4c(C)cccc4C)o3)ccc2c1 (stereo not drawn) = 12.5

QUERY: Report measured IC50; entry is COc1ccc2cc(C(C)c3nnc(SCC(=O)Nc4ccc([N+](=O)[O-])cc4O)o3)ccc2c1 (stereo not drawn)
RESULT: 9.4

QUERY: Report measured IC50; entry is COc1ccc2cc(C(C)c3nnc(SCC(=O)Nc4ccccc4C)o3)ccc2c1 (stereo not drawn)
RESULT: 13.6

QUERY: Report measured IC50; entry is COc1ccc2cc(C(C)c3nnc(SCC(=O)Nc4ccccc4)o3)ccc2c1 (stereo not drawn)
RESULT: 13.2

QUERY: Report measured IC50; entry is CNC(=O)c1cc(Oc2ccc(NC(=O)Nc3ccc(Cl)c(C(F)(F)F)c3)cc2)ccn1 [Sorafenib, reference compound]
RESULT: 10.8

QUERY: Report measured IC50; entry is COc1ccc2cc(C(C)c3nnc(SCC(=O)NCc4ccccc4)o3)ccc2c1 (stereo not drawn)
RESULT: 9.7

QUERY: Report measured IC50; entry is COc1cccc(NC(=O)CSc2nnc(C(C)c3ccc4cc(OC)ccc4c3)o2)c1 (stereo not drawn)
RESULT: 11.4

QUERY: Report measured IC50; entry is COc1ccc2cc([C@H](C)c3nnc(SCC(=O)Nc4cccc(C)c4)o3)ccc2c1
RESULT: 10.4

* * *

# IC50 listing for each entry below
- Test system: HepG2 (human hepatocellular carcinoma cell line)
- Test Summary: MTT cytotoxicity assay, HepG2
- Assay type: cell-based
- Run Conditions: HepG2, MTT assay, mean ± SEM of at least three experiments, read-out: IC50 HepG2
All answers are understood in µM, so give the number only.

- COc1ccc2cc(C(C)c3nnc(SCC(=O)Nc4ccccc4C)o3)ccc2c1 (stereo not drawn): 12.5
- COc1ccc2cc(C(C)c3nnc(SCC(=O)Nc4ccc([N+](=O)[O-])cc4O)o3)ccc2c1 (stereo not drawn): 8.7
- COc1ccc2cc(C(C)c3nnc(SCC(=O)Nc4ccccc4)o3)ccc2c1 (stereo not drawn): 12.3
- COc1cccc(NC(=O)CSc2nnc(C(C)c3ccc4cc(OC)ccc4c3)o2)c1 (stereo not drawn): 10.7
- COc1ccc2cc([C@H](C)c3nnc(SCC(=O)Nc4cccc(C)c4)o3)ccc2c1: 9.5

QUERY: Report measured IC50; entry is COc1ccc2cc(C(C)c3nnc(SCC(=O)NCc4ccccc4)o3)ccc2c1 (stereo not drawn)
RESULT: 8.8

QUERY: Report measured IC50; entry is COc1ccc2cc(C(C)c3nnc(SCC(=O)Nc4c(C)cccc4C)o3)ccc2c1 (stereo not drawn)
RESULT: 11.8

QUERY: Report measured IC50; entry is COc1ccc2cc(C(C)c3nnc(SCC(=O)Nc4c(Cl)cccc4Cl)o3)ccc2c1 (stereo not drawn)
RESULT: 8.4

QUERY: Report measured IC50; entry is CNC(=O)c1cc(Oc2ccc(NC(=O)Nc3ccc(Cl)c(C(F)(F)F)c3)cc2)ccn1 [Sorafenib, reference compound]
RESULT: 10.2
